Cited source for all entries: ChEMBL document CHEMBL1143346

- tested system: Cathepsin S (Homo sapiens)
- Sequence (P25774 whole entry): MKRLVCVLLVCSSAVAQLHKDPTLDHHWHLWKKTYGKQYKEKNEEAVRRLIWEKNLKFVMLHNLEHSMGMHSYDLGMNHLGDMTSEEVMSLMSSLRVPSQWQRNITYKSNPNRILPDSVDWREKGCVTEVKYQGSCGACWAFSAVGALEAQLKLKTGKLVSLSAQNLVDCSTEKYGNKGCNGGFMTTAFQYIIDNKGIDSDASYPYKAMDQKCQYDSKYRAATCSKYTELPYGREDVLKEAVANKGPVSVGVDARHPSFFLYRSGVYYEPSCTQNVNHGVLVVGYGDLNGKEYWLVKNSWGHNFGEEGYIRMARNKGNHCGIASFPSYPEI
- procedure details: Inhibition of human recombinant cathepsin S expressed in baculovirus by fluorescence assay
pKi: −log10 of the molar value.
pKi vs 8: at or above is 1, below is 0.

The examples below pair each entry with its known result.
>  <mol>
CC[C@@H]1OCC(=O)[C@H]1NC(=O)[C@H](CC1(C)CCCC1)NC(=O)c1ccc(NS(=O)(=O)c2ccccc2)c(C)c1

>  <tested system>
Cathepsin S (Homo sapiens)

>  <answer label>
1

$$$$
>  <mol>
CC[C@@H]1OCC(=O)[C@H]1NC(=O)[C@H](CC1(C)CCCC1)NC(=O)c1ccc(NS(=O)(=O)C2CCCCC2)cc1

>  <tested system>
Cathepsin S (Homo sapiens)

>  <answer label>
0

$$$$
>  <mol>
CC[C@@H]1OCC(=O)[C@H]1NC(=O)[C@H](CC1(C)CCCC1)NC(=O)c1ccc(NS(=O)(=O)c2ccncc2)cc1

>  <tested system>
Cathepsin S (Homo sapiens)

>  <answer label>
1

$$$$

As a next step, examine the compound that follows.
Is pKi at least 8? Consider CC[C@@H]1OCC(=O)[C@H]1NC(=O)[C@H](CC1(C)CCCC1)NC(=O)c1ccc(NS(=O)(=O)c2ccc(F)cc2)cc1
1

###

- tested system: Cathepsin K (Homo sapiens, UniProt P43235)
- Sequence (P43235 whole entry): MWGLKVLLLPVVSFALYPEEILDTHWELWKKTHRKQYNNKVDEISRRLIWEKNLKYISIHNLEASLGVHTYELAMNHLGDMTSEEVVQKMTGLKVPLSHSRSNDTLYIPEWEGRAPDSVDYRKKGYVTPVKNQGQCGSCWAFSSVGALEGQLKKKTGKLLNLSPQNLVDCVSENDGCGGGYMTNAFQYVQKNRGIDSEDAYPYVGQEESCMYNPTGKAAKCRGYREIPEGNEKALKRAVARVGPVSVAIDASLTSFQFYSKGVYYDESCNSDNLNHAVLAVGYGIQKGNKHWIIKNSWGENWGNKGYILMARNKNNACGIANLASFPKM
- procedure details: Inhibition of human recombinant cathepsin K expressed in baculovirus by fluorescence assay
test readout: pKi
Answers are plain numbers, as −log10 of the molar value.

>  <mol>
CC[C@@H]1OCC(=O)[C@H]1NC(=O)[C@H](CC1(C)CCCC1)NC(=O)c1ccc(NS(=O)(=O)c2ccc(N)cc2)cc1

>  <endpoint value>
6.02

$$$$
>  <mol>
CC[C@@H]1OCC(=O)[C@H]1NC(=O)[C@H](CC1(C)CCCC1)NC(=O)c1ccc(NS(C)(=O)=O)cc1C

>  <endpoint value>
5.72

$$$$
>  <mol>
CC[C@@H]1OCC(=O)[C@H]1NC(=O)[C@H](CC1(C)CCCC1)NC(=O)c1ccc(NS(C)(=O)=O)c(C(C)=O)c1

>  <endpoint value>
6.12

$$$$

Form field - read-out: pKi; system: Cathepsin K (Homo sapiens, UniProt P43235); submitted item: CC[C@@H]1OCC(=O)[C@H]1NC(=O)[C@H](CC1(C)CCCC1)NC(=O)c1ccc(NS(C)(=O)=O)cc1OC
5.30

###

- tested system: UniProt:P25774
- procedure details: Inhibition of human recombinant cathepsin S expressed in baculovirus by fluorescence assay
Kindly state Ki for each of the entries shown.
Give bare numbers, in nM.

Before answering, review these 6 worked examples.
>  <mol>
CC[C@@H]1OCC(=O)[C@H]1NC(=O)[C@H](CC1(C)CCCC1)NC(=O)c1ccc(NS(=O)(=O)c2ccccc2)cc1

>  <units of measure>
nM

>  <Ki>
0.8

$$$$
>  <mol>
CC[C@@H]1OCC(=O)[C@H]1NC(=O)[C@H](CC1(C)CCCC1)NC(=O)c1ccc(NS(C)(=O)=O)c(Cl)c1

>  <units of measure>
nM

>  <Ki>
5.6

$$$$
>  <mol>
CC[C@@H]1OCC(=O)[C@H]1NC(=O)[C@H](CC1(C)CCCC1)NC(=O)c1ccc(NS(=O)(=O)c2cnccc2C)cc1

>  <units of measure>
nM

>  <Ki>
0.9

$$$$
>  <mol>
CC[C@@H]1OCC(=O)[C@H]1NC(=O)[C@H](CC1(C)CCCC1)NC(=O)c1ccc(NS(=O)(=O)c2ccccc2)nc1

>  <units of measure>
nM

>  <Ki>
56

$$$$
>  <mol>
CC[C@@H]1OCC(=O)[C@H]1NC(=O)[C@H](CC1(C)CCCC1)NC(=O)c1ccc(N(C)S(C)(=O)=O)cc1

>  <units of measure>
nM

>  <Ki>
110

$$$$
>  <mol>
CC[C@@H]1OCC(=O)[C@H]1NC(=O)[C@H](CC1(C)CCCC1)NC(=O)c1ccc(S(=O)(=O)NC)cc1

>  <units of measure>
nM

>  <Ki>
140

$$$$

# input for lookup
Entry CC[C@@H]1OCC(=O)[C@H]1NC(=O)[C@H](CC1(C)CCCC1)NC(=O)c1ccc(NS(C)(=O)=O)c(C(C)=O)c1 has what Ki?
57

###

Exercise: for every item that follows, state its recorded pKi.
- tested system: Cathepsin K (Homo sapiens, UniProt P43235)
- procedure details: Inhibition of human recombinant cathepsin K expressed in baculovirus by fluorescence assay
One number for each entry, as −log10 of the molar value.

>  <mol>
CC[C@@H]1OCC(=O)[C@H]1NC(=O)[C@H](CC1(C)CCCC1)NC(=O)c1ccc(NS(=O)(=O)c2ccccc2C#N)cc1

>  <pKi>
6.09

$$$$
>  <mol>
CC[C@@H]1OCC(=O)[C@H]1NC(=O)[C@H](CC1(C)CCCC1)NC(=O)c1ccc(NS(=O)(=O)c2cccs2)cc1

>  <pKi>
6.00

$$$$
>  <mol>
CC[C@@H]1OCC(=O)[C@H]1NC(=O)[C@H](CC1(C)CCCC1)NC(=O)c1ccc(NS(=O)(=O)N(C)C)cc1

>  <pKi>
6.52

$$$$

Dear colleague, could you send me pKi for each of the items below? Thanks.
1. CC[C@@H]1OCC(=O)[C@H]1NC(=O)[C@H](CC1(C)CCCC1)NC(=O)c1ccc(NS(=O)(=O)c2ccc(C#N)cc2)cc1
2. CC[C@@H]1OCC(=O)[C@H]1NC(=O)[C@H](CC1(C)CCCC1)NC(=O)c1ccc(NS(=O)(=O)c2ccccc2F)cc1
3. CC[C@@H]1OCC(=O)[C@H]1NC(=O)[C@H](CC1(C)CCCC1)NC(=O)c1ccc(NS(C)(=O)=O)c(C)c1
4. CC[C@@H]1OCC(=O)[C@H]1NC(=O)[C@H](CC1(C)CCCC1)NC(=O)c1ccc(NS(=O)(=O)Cc2ccccc2)cc1

[6.02, 6.01, 6.62, 5.77]

###

List of Ki tested on Procathepsin L (Homo sapiens).
Sequence (P07711 whole entry): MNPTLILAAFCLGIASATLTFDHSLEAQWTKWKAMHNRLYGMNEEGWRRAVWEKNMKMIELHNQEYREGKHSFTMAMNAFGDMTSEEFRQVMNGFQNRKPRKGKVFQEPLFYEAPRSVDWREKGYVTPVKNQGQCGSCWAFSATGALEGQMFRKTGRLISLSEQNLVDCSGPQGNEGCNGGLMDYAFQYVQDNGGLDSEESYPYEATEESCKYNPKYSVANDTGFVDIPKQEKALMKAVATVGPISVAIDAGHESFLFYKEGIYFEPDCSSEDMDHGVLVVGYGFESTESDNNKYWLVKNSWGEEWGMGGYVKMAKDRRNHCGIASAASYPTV
Numbers only, in µM.

Example entries begin here.
>  <mol>
CC[C@@H]1OCC(=O)[C@H]1NC(=O)[C@H](CC1(C)CCCC1)NC(=O)c1ccc(NS(=O)(=O)c2cccc(C#N)c2)cc1

>  <Ki / µM>
6.8

$$$$
>  <mol>
CCCCS(=O)(=O)Nc1ccc(C(=O)N[C@@H](CC2(C)CCCC2)C(=O)N[C@@H]2C(=O)CO[C@H]2CC)cc1

>  <Ki / µM>
21

$$$$
>  <mol>
CC[C@@H]1OCC(=O)[C@H]1NC(=O)[C@H](CC1(C)CCCC1)NC(=O)c1ccc(NS(=O)(=O)C2CC2)cc1

>  <Ki / µM>
12

$$$$
>  <mol>
CC[C@@H]1OCC(=O)[C@H]1NC(=O)[C@H](CC1(C)CCCC1)NC(=O)c1ccc(NS(=O)(=O)c2ccccc2)c(Cl)c1

>  <Ki / µM>
1.1

$$$$
>  <mol>
CC[C@@H]1OCC(=O)[C@H]1NC(=O)[C@H](CC1(C)CCCC1)NC(=O)c1ccc(NS(=O)(=O)c2ccc(F)cc2)cc1

>  <Ki / µM>
5.9

$$$$

Report Ki for each item below.
1. CC[C@@H]1OCC(=O)[C@H]1NC(=O)[C@H](CC1(C)CCCC1)NC(=O)c1ccc(NS(=O)(=O)c2ccc(C#N)cc2)cc1
2. CC[C@@H]1OCC(=O)[C@H]1NC(=O)[C@H](CC1(C)CCCC1)NC(=O)c1ccc(NS(C)(=O)=O)c(F)c1
3. CC[C@@H]1OCC(=O)[C@H]1NC(=O)[C@H](CC1(C)CCCC1)NC(=O)c1ccc(NS(=O)(=O)c2ccccc2F)cc1
4. CC[C@@H]1OCC(=O)[C@H]1NC(=O)[C@H](CC1(C)CCCC1)NC(=O)c1ccc(NS(=O)(=O)c2sc(C)nc2C)cc1
5. CC[C@@H]1OCC(=O)[C@H]1NC(=O)[C@H](CC1(C)CCCC1)NC(=O)c1ccc(NS(=O)(=O)c2cccnc2)cc1

1. 7.9
2. 7.8
3. 11
4. 16
5. 14

###

- tested system: UniProtKB P43235
- Sequence (P43235 whole entry): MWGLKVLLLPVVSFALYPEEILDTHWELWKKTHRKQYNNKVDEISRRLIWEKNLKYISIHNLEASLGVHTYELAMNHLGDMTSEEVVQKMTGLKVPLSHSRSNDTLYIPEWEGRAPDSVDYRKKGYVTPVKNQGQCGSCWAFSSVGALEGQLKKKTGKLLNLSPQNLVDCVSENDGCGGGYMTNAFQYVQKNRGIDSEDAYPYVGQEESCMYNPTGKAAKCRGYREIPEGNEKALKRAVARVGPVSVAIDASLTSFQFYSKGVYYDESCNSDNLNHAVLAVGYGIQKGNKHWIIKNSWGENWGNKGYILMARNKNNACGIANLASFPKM
- procedure details: Inhibition of human recombinant cathepsin K expressed in baculovirus by fluorescence assay
pKi: −log10 of the molar value.
Binary classification by pKi, with 6 as an inclusive lower bound for yes; all other cases are no.

Examples from the recorded data:
>  <mol>
CC[C@@H]1OCC(=O)[C@H]1NC(=O)[C@H](CC1(C)CCCC1)NC(=O)c1ccc(NS(C)(=O)=O)cc1

>  <answer label>
yes

$$$$
>  <mol>
CC[C@@H]1OCC(=O)[C@H]1NC(=O)[C@H](CC1(C)CCCC1)NC(=O)c1ccc(NS(=O)(=O)c2ncc(C)s2)cc1

>  <answer label>
no

$$$$
>  <mol>
CC[C@@H]1OCC(=O)[C@H]1NC(=O)[C@H](CC1(C)CCCC1)NC(=O)c1ccc(NS(=O)(=O)c2cccc(F)c2)cc1

>  <answer label>
yes

$$$$

For this molecule, is measured pKi 6 or higher? CC[C@@H]1OCC(=O)[C@H]1NC(=O)[C@H](CC1(C)CCCC1)NC(=O)c1ccc(NS(=O)(=O)c2nc(C)cs2)cc1
no

Please check the record CC[C@@H]1OCC(=O)[C@H]1NC(=O)[C@H](CC1(C)CCCC1)NC(=O)c1ccc(NS(=O)(=O)c2cccnc2)cc1 and state if its pKi is at or above 6.
yes

Determine whether measured pKi meets or exceeds 6 for CC[C@@H]1OCC(=O)[C@H]1NC(=O)[C@H](CC1(C)CCCC1)NC(=O)c1ccc(NS(=O)(=O)c2ccccc2C)cc1
yes

Hi team, for CC[C@@H]1OCC(=O)[C@H]1NC(=O)[C@H](CC1(C)CCCC1)NC(=O)c1ccc(NS(C)(=O)=O)c(OC)c1 , is the recorded pKi at or above 6?
yes

Textbook exercise: given the entry CC[C@@H]1OCC(=O)[C@H]1NC(=O)[C@H](CC1(C)CCCC1)NC(=O)c1ccc(NS(=O)(=O)c2ccccn2)cc1 , state whether its pKi is greater than or equal to 6.
yes

Determine whether this molecule has pKi no lower than 6: CC[C@@H]1OCC(=O)[C@H]1NC(=O)[C@H](CC1(C)CCCC1)NC(=O)c1ccc(NS(=O)(=O)C2CC2)cc1
yes

Check the entry CC[C@@H]1OCC(=O)[C@H]1NC(=O)[C@H](CC1(C)CCCC1)NC(=O)c1ccc(S(=O)(=O)NC)cc1 : does pKi equal or exceed 6?
yes

Identify whether the reported pKi of the following molecule is 6 or greater: CC[C@@H]1OCC(=O)[C@H]1NC(=O)[C@H](CC1(C)CCCC1)NC(=O)c1cccc(S(=O)(=O)NC)c1
no
